Recorded EC50 for the following binders
Target: T1, Hu/NoV/GII.4/MD2004/2004/U.S. VLP (human norovirus GII.4)
T1 construct: mature; baculovirus VLP; VP2 may be present; also called MD2004 VLP
Assay: blockade ELISA: VLP binding to PGM type III
readout_name: EC50 (µg/mL)

VHH 4.1 (VHH, llama VHH, MD2004 library; pHEN6, C-terminal His6 tag; also called clone 4.1) VHH: QVKLQQSGGGLVQPGGSLRLSCAASESTISINTLGWYRQAPGNQRELVATITTGGTTNYADSVKGRFTISRDNAKNTVYLQMNNLEPGDTAVYYCNLKRRDLQSRFGGYWGQGTQVTVSS
2.91
VHH 16 (VHH, MD2004 library, subtractive biopanning; His6 tag; also called 16.1; clone 16) VHH: QVKLQQSGGGLVQPGGSLRLTCAASGFPFSTYAIRWVRRPPGKGLEWVSTIHPDFTTNYADSVSRRFTISRDNAKNTVYLQMNSLKPEDTAVYYCSRGVSGERGQGTQVTVSS
0.767
VHH 5.4 (VHH, llama VHH, MD2004 library; pHEN6, C-terminal His6 tag; also called clone 5.4) VHH: QVQLQQSGGGLVQPGGSLRLSCVASESTVSINIMGWYRQAPGKQRELVATITTGGTTNYADSVKGRFTISRDNAKNTVYLQMNSLEPEDTAVYYCNLKRRDLQARFGGYWGQGTQVTVSS
2.02
VHH 1 (VHH, llama VHH, MD2004 (GII.4) library; pHEN6, C-terminal His6 tag; also called 1.1; clone 1) VHH: QVQLQQSGGGLVQAGGSLRLSCAASGLAFSSYAITWLRQAPGTEREFVALISGSGSSTYYADSVKGRFTISRNNAKNTVYLQMNSLKPEDTAVYYCTASEFLLHPPPPNQKYDYWGQGTQVTVSS
0.341
